Listing of entries alongside the reported Improvement in pH responsiveness of inhibitory peptide relative to WT.
# Tested on: T1, thermostable variant of Streptomyces mobaraensis transglutaminase (Streptomyces mobaraensis, UniProt P81453 79-407)
# T1 sequence: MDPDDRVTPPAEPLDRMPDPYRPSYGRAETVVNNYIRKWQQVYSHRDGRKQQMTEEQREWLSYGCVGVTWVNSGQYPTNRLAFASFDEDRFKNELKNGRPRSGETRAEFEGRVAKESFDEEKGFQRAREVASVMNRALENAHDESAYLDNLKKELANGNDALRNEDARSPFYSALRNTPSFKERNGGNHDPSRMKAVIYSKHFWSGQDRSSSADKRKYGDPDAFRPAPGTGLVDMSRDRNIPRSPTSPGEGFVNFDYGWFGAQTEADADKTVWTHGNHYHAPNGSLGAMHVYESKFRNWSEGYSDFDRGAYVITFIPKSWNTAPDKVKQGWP
# Run description: cell-based or functional assay
Readout type: Improvement in pH responsiveness of inhibitory peptide relative to WT

• MDNGAGEETKSYAETYRLTACDVANINALNESAPAASSAGPSFRAP [pro-peptide variant D21C] = > 1.2 fold
• MDNGAGETTKSYAETYRLTADDVANINALNESAPAASSAGPSFRAP [pro-peptide variant E8T] = > 1.2 fold
• MDNGAGEETKSYAETYRLTATDVANINALNESAPAASSAGPSFRAP [pro-peptide variant D21T] = > 1.2 fold
